- System Under Test: fixed activated platelets (Homo sapiens, UniProt P05106+P08514)
- Sequence (P08514 32-1039): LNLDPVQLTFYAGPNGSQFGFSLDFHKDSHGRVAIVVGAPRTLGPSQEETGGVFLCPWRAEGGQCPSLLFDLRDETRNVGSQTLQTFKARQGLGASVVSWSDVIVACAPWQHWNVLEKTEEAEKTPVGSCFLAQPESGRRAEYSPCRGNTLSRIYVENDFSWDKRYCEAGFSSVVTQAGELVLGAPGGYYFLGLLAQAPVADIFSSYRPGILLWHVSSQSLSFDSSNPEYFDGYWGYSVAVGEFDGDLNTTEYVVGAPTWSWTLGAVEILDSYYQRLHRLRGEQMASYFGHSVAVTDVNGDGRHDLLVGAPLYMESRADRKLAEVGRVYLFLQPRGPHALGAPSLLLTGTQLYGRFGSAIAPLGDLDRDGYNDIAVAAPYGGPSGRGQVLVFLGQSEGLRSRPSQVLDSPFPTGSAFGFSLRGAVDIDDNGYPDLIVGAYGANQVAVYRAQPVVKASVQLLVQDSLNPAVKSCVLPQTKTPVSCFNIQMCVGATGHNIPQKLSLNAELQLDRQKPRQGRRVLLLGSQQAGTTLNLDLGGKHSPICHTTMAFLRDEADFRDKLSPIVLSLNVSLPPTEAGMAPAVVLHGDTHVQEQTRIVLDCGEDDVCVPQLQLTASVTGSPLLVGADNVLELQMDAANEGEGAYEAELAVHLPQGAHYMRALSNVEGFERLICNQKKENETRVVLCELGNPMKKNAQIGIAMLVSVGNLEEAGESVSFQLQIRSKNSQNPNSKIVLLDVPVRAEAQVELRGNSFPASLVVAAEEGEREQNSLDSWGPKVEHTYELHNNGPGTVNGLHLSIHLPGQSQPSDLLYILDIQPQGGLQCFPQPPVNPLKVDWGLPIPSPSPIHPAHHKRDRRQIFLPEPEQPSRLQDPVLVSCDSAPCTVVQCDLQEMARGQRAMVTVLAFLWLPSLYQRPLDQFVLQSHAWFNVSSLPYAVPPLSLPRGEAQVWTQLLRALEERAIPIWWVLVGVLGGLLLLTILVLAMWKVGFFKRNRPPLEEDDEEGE
- Sequence (P05106 27-788): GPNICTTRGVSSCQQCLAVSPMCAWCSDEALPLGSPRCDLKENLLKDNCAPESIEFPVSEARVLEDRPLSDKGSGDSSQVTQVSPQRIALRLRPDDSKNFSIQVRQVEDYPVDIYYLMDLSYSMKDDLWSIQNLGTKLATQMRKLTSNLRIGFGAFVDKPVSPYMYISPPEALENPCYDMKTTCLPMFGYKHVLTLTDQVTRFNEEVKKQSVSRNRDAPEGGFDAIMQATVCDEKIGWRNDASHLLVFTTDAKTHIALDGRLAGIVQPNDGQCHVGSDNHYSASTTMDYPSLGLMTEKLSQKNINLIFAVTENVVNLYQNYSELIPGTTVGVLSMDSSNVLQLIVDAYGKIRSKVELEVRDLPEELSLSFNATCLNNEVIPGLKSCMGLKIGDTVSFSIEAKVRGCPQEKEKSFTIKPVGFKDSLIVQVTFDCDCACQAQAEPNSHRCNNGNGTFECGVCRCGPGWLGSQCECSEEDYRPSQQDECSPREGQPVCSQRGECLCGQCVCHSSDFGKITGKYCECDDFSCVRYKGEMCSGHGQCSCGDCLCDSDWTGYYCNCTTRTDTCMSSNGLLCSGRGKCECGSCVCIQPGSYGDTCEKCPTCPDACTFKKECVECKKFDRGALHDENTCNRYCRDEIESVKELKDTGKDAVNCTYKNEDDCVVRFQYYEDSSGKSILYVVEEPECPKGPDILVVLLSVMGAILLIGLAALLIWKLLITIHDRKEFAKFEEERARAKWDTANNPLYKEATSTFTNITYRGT
- Method: Platelet Aggregation Assay (fibrinogen-mediated aggregation of fixed-activated platelets)
- Assay type: cell-based
- Details: fixed activated platelets, human fibrinogen 250 μg/ml; read-out: Inhibition of Fibrinogen Mediated Platelet Aggregation IC50
pIC50: −log10 of the molar value. Non-standard residues stand in square brackets, D forms with d. Residues, ends and D or L forms follow the SMILES beside them. Aoc = NCCCCCCCC(=O)O; Sar = CNCC(=O)O
Quick rule: pIC50 of at least 6 means TRUE, below that means FALSE.

For this molecule, is measured pIC50 6 or higher? CC(C)[C@H](NC(=O)[C@H](CC(=O)O)NC(=O)CN(C)C(=O)CCCCCCCN)C(=O)O (H-[Aoc][Sar]DV-OH)
FALSE

And for CC(C)C[C@H](NC(=O)[C@H](CC(=O)O)NC(=O)CCCCCCCCNC(=N)N)C(=O)N[C@@H](CCCNC(=N)N)C(=O)O ?
TRUE

And for CC(C)[C@H](NC(=O)[C@H](CC(=O)O)NC(=O)CNC(=O)CCCCCNC(=N)N)C(=O)O ?
FALSE

And for CCCC(C)CN(CC(=O)N[C@@H](CC(=O)O)C(=O)N[C@H](C(=O)O)C(C)C)C(=O)CCCCCNC(=N)N (stereo partly shown) ?
FALSE

And for CCCCOC(=O)C[C@H](NC(=O)CN(C)C(=O)CCCCCNC(=N)N)C(=O)N[C@H](C(=O)O)C(C)C ?
FALSE

And for CC(C)[C@H](NC(=O)[C@H](CC(=O)O)NC(=O)CNC(=O)[C@@H](N)CCCCN)C(=O)O [L-Lysylglycyl-L-aspartyl-L-valine] (H-KGDV-OH) ?
FALSE
